Experiment: Intrinsic clearance in CD1 mouse liver microsomes at 0.5 uM measured up to 30 mins in presence of NADPH by UPLC-MSMS analysis
Type: ADME, Microsome
Conditions: 0.5 h
Rule: measured intrinsic clearance below 5 mL/min/g gets true (1); anything equal to or greater than 5 mL/min/g gets false (0).

CC(=O)Nc1cnc2[nH]c(=O)n([C@H]3CC[C@@H](C(C)C)CC3)c(=O)c2c1 = false (0)
CC(=O)Nc1ccc2[nH]c(=O)n([C@H]3CC[C@H](OC(C)C)CC3)c(=O)c2c1 = true (1)
CC(=O)Nc1ccc2[nH]c(=O)n([C@H]3CC[C@@H](C(C)C)CC3)c(=O)c2c1 = false (0)
CC(=O)Nc1cnc2[nH]c(=O)n([C@H]3CC[C@H](C(C)(C)C)CC3)c(=O)c2c1 = true (1)
CC(C)[C@H]1CC[C@@H](n2c(=O)[nH]c3ncc(N)cc3c2=O)CC1 = true (1)
CC(=O)Nc1ccc2[nH]c(=O)n([C@H]3CC[C@@H](C(F)(F)F)CC3)c(=O)c2c1 = true (1)
CC(=O)Nc1cnc2[nH]c(=O)n([C@H]3CC[C@@H](C(C)(C)C)CC3)c(=O)c2c1 = false (0)
CC(=O)Nc1ccc2[nH]c(=O)n([C@H]3CC[C@H](OC(C)(C)C)CC3)c(=O)c2c1 = true (1)
CCC[C@H]1CC[C@@H](n2c(=O)[nH]c3ccc(NC(C)=O)cc3c2=O)CC1 = false (0)
CC(C)[C@H]1CC[C@H](n2c(=O)[nH]c3ncc(N)cc3c2=O)CC1 = true (1)
CC(C)(C)[C@H]1CC[C@H](n2c(=O)[nH]c3ncc(N)cc3c2=O)CC1 = true (1)
CC[C@H]1CC[C@@H](n2c(=O)[nH]c3ccc(NC(C)=O)cc3c2=O)CC1 = false (0)
CC(=O)Nc1ccc2[nH]c(=O)n([C@H]3CC[C@H](C(C)(C)C)CC3)c(=O)c2c1 = true (1)
CC(=O)Nc1ccc2[nH]c(=O)n(C3CCC(C)(C)CC3)c(=O)c2c1 = true (1)
CC(=O)Nc1cnc2[nH]c(=O)n([C@H]3CC[C@H](C(C)C)CC3)c(=O)c2c1 = true (1)
CC(C)(C)[C@H]1CC[C@H](n2c(=O)[nH]c3ccc(N)cc3c2=O)CC1 = true (1)
CC[C@H]1CC[C@H](n2c(=O)[nH]c3ccc(NC(C)=O)cc3c2=O)CC1 = true (1)
CC(=O)Nc1ccc2[nH]c(=O)n(C3CCC(C(C)(C)C)C3)c(=O)c2c1 (racemic) = false (0)
CC[C@H]1CC[C@@H](n2c(=O)[nH]c3ccc(N)cc3c2=O)CC1 = false (0)
